protocol summary: APAP-GLUC concentration in plasma of pediatric patients after APAP administration (HPLC)
Assay type: in vivo, human
experimental parameters: human, plasma, NASH, 2 h after APAP; read-out: Mean plasma concentration
measured property: concentration at 2 h (µM)

- CC(=O)Nc1ccc(O[C@@H]2O[C@H](C(=O)O)[C@@H](O)[C@H](O)[C@H]2O)cc1 [APAP-GLUC, acetaminophen (APAP)-glucuronide]: 72.7

----------
protocol summary: APAP-GLUC concentration in plasma of pediatric patients after APAP administration (HPLC)
Type: in vivo, human
experimental parameters: human, plasma, Normal, 3 h after APAP; read-out: Median plasma concentration
measured property: concentration at 3 h (µM)

• CC(=O)Nc1ccc(O[C@@H]2O[C@H](C(=O)O)[C@@H](O)[C@H](O)[C@H]2O)cc1 [APAP-GLUC, acetaminophen (APAP)-glucuronide] = 39.2

----------
protocol summary: APAP-GLUC concentration in plasma of pediatric patients after APAP administration (HPLC)
Type: in vivo, human
experimental parameters: human, plasma, Steatosis, 2 h after APAP; read-out: Median plasma concentration
measured property: concentration at 2 h (µM)

• CC(=O)Nc1ccc(O[C@@H]2O[C@H](C(=O)O)[C@@H](O)[C@H](O)[C@H]2O)cc1 [APAP-GLUC, acetaminophen (APAP)-glucuronide] = 41.1

----------
protocol summary: APAP-GLUC concentration in plasma of pediatric patients after APAP administration (HPLC)
Type: in vivo, human
experimental parameters: human, plasma, Steatosis, 4 h after APAP; read-out: Median plasma concentration
measured property: concentration at 4 h (µM)

* CC(=O)Nc1ccc(O[C@@H]2O[C@H](C(=O)O)[C@@H](O)[C@H](O)[C@H]2O)cc1 [APAP-GLUC, acetaminophen (APAP)-glucuronide] | 35.3

----------
protocol summary: APAP-GLUC concentration in plasma of pediatric patients after APAP administration (HPLC)
Assay type: in vivo, human
experimental parameters: human, plasma, NASH, 4 h after APAP; read-out: Mean plasma concentration
measured property: concentration at 4 h (µM)

• CC(=O)Nc1ccc(O[C@@H]2O[C@H](C(=O)O)[C@@H](O)[C@H](O)[C@H]2O)cc1 [APAP-GLUC, acetaminophen (APAP)-glucuronide] = 68.3

----------
protocol summary: APAP-GLUC concentration in plasma of pediatric patients after APAP administration (HPLC)
Type: in vivo, human
experimental parameters: human, plasma, Steatosis, 1 h after APAP; read-out: Median plasma concentration
measured property: concentration at 1 h (µM)

* CC(=O)Nc1ccc(O[C@@H]2O[C@H](C(=O)O)[C@@H](O)[C@H](O)[C@H]2O)cc1 [APAP-GLUC, acetaminophen (APAP)-glucuronide] | 32.6

----------
protocol summary: APAP-GLUC concentration in plasma of pediatric patients after APAP administration (HPLC)
Assay type: in vivo, human
experimental parameters: human, plasma, Normal, 1 h after APAP; read-out: Mean plasma concentration
measured property: concentration at 1 h (µM)

• CC(=O)Nc1ccc(O[C@@H]2O[C@H](C(=O)O)[C@@H](O)[C@H](O)[C@H]2O)cc1 [APAP-GLUC, acetaminophen (APAP)-glucuronide] = 29.9
